# EXPERIMENTAL_TARGET: σ1-receptor (Cavia porcellus)
# Construct: Guinea pig brains were homogenized in 10 vols; (w/v) of Tris-HCl 50 mM 0.32 M sucrose, pH 7.4; from tissue; host or cells: guinea pig brain membranes
# Sequence (Q60492 whole entry): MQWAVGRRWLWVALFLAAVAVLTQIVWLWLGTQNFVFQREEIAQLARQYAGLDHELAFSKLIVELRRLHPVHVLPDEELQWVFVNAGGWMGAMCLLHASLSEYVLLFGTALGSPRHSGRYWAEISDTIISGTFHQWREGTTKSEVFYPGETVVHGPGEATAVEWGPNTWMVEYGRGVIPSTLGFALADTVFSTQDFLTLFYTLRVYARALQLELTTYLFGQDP
# TEST_PROTOCOL: σ1-receptor binding assay, [3H]-(+)-pentazocine, guinea pig brain membranes
# DETAILS: radioligand [3H]-(+)-pentazocine 5.0 nM, 150 min at 37° C., nonspecific binding with 1 μM haloperidol
Structures can show the parent of a compound that is named as a salt.
We begin with a simple list: items and their reported log10 Ki.
PROPERTY: log10 Ki (log10 of the value in nM)

{"MOLECULE": "Fc1ccc(-c2cccc3c2CC=C3CCN2CCCCCC2)cc1 [Compound 2, hydrochloride]", "log10 Ki": 1.08}
{"MOLECULE": "COc1ccc(-c2cccc3c2CC=C3CCN2CCN(C)CC2)cc1 [Compound 22, maleate]", "log10 Ki": 2.11}
{"MOLECULE": "CN1CCN(CCC2=CCc3c2cccc3-c2ccc(Cl)c(Cl)c2)CC1 [Compound 20, maleate]", "log10 Ki": 1.40}
{"MOLECULE": "CN1CCN(CCC2=CCc3c2cccc3-c2cccnc2)CC1 [Compound 35, maleate]", "log10 Ki": 1.79}
{"MOLECULE": "CN1CCN(CCC2=CCc3c2cccc3-c2ccncc2F)CC1 [Compound 4, maleate]", "log10 Ki": 1.38}
{"MOLECULE": "CN1CCN(CCC2=CCc3c2cccc3-c2cncnc2)CC1 [Compound 29, maleate]", "log10 Ki": 2.23}
{"MOLECULE": "C1=C(CCN2CCN(c3ccccc3)CC2)c2cccc(-c3ccccc3)c2C1 [Compound 6, maleate]", "log10 Ki": 1.49}
{"MOLECULE": "C1=C(CCN2CCC(c3ccccc3)CC2)c2cccc(-c3ccccc3)c2C1 [Compound 10, maleate]", "log10 Ki": 1.11}
{"MOLECULE": "COc1ccc(-c2cccc3c2CC=C3CCN2CCOCC2)cc1 [Compound 21, maleate]", "log10 Ki": 1.72}
{"MOLECULE": "CN1CCN(CCC2=CCc3c2cccc3-c2cccc(F)c2)CC1 [Compound 17, maleate]", "log10 Ki": 1.15}
{"MOLECULE": "CN1CCCN(CCC2=CCc3c2cccc3-c2ccncc2)CC1 [Compound 31, maleate]", "log10 Ki": 1.46}

----------
Where a name gives a salt, the structure may show the parent alone.
Lab note: Ki readings collected with σ1-receptor (Cavia porcellus) for the following compounds.

{"COMPOUND": "C1=C(CCN2CCOCC2)c2cccc(-c3cccnc3)c2C1 [Compound 34, maleate]", "Ki, nM": 82}
{"COMPOUND": "CN1CCN(CCC2=CCc3c2cccc3-c2ccnn2C)CC1 [Compound 38, maleate]", "Ki, nM": 30}
{"COMPOUND": "C1=C(CCN2CCOCC2)c2cccc(-c3ccncc3)c2C1 [Compound 3, maleate]", "Ki, nM": 47}
{"COMPOUND": "CN1CCN(CCC2=CCc3cc(-c4ccncc4)ccc32)CC1", "Ki, nM": 143}
{"COMPOUND": "CN1CCN(CCC2=CCc3c2cccc3-c2ccnc(F)c2)CC1 [Compound 33, maleate]", "Ki, nM": 29}
{"COMPOUND": "Clc1ccc(-c2cccc3c2CC=C3CCN2CCOCC2)cc1Cl [Compound 19, maleate]", "Ki, nM": 12}
{"COMPOUND": "CN1CCN(CCC2=CCc3c2cccc3-c2ccccc2)CC1 [Compound 5, maleate]", "Ki, nM": 13}
{"COMPOUND": "Clc1cccc(N2CCN(CCC3=CCc4c3cccc4-c3ccccc3)CC2)c1 [Compound 7, maleate]", "Ki, nM": 63}
{"COMPOUND": "Fc1ccc(-c2cccc3c2CC=C3CCN2CCOCC2)cc1 [Compound 13, maleate]", "Ki, nM": 4}
